- Tested on: Jeko-1 (SOX11+)
- procedure summary: Cell viability assay (CellTiter-Blue resazurin reduction)
- Assay type: cell-based
- condition details: Homo sapiens, JeKo-1, 72 h, JeKo-1 cells, 20 μM compound, normalized to 0.2% DMSO
- Description: Cell viability was determined by a fluorometric resazurin reduction method (CellTiter-Blue; Promega, Madison, Wis.) following the manufacturer's instructions. […] Cells were incubated for 72 hours. […] The number of viable cells in each treated well was calculated, based on the linear least squares regression of the standard curve (OD vs. cell concentration). […] The average and mean standard deviation were calculated from three separate experiments. […]
Category | rule: reported viability at 20 µM within range, see low interval (below 20%), middle interval (20% to below 90%), high interval (90% or more)

Answered cases to consult:
molecule: CC1Sc2ccc(C(=O)Nc3ccc(OCc4ccccc4)cc3)cc2NC1=O (stereo not shown)
discrete label: high interval
--
molecule: CC1Sc2ccc(C(=O)Nc3ccc(S(=O)(=O)N4CCCC4)c(Cl)c3)cc2N(C)C1=O (stereo not shown)
discrete label: low interval
--
molecule: CC1Sc2ccc(C(=O)Nc3ccc(S(=O)(=O)Nc4ccccc4)c(Cl)c3)cc2NC1=O (stereo not shown)
discrete label: low interval

// query Class? Entry: O=C(Nc1ccc(CNc2ccccc2)cc1)c1ccc2c(c1)CCCS2
// result middle interval

// query Class? Entry: CC1Sc2ccc(C(=O)Nc3cccc(S(=O)(=O)Nc4ccc(Cl)cc4)c3)cc2NC1=O (stereo not shown)
// result low interval

// query Class? Entry: CC1Sc2ccc(C(=O)Nc3cccc(S(=O)(=O)Nc4cccc(C(F)(F)F)c4)c3)cc2NC1=O (stereo not shown)
// result low interval

---

- target desc: (His)6-SOX11-DBD protein (Homo sapiens, UniProt P35716)
- Construct: Recombinant (His)6-SOX11-DBD protein was immobilized
- Sequence (P35716 49-117 limits assumed): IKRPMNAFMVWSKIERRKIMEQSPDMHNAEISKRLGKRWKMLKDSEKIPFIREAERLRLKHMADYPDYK
- procedure summary: Surface Plasmon Resonance (SPR) assay
- condition details: immobilized recombinant (His)6-SOX11-DBD, 25° C., compounds 5-40 μM, mean of three experiments
quantity kind: log10 of Kd (log10 of the value in µM)
Scale: log10; quantity: Kd; unit before log: µM

Examples with answers:
molecule: O=C(Nc1ccc(S(=O)(=O)Nc2ccccc2)cc1)c1ccc2cnccc2c1
target desc: (His)6-SOX11-DBD protein (Homo sapiens, UniProt P35716)
quantity kind: log10 of Kd
recorded number: 2.13
//
molecule: CC1Sc2ccc(C(=O)Nc3cccc(S(=O)(=O)Nc4ccncc4)c3)cc2NC1=O (stereo not shown)
target desc: (His)6-SOX11-DBD protein (Homo sapiens, UniProt P35716)
quantity kind: log10 of Kd
recorded number: 1.33
//
molecule: CC1Sc2ccc(C(=O)Nc3ccc(S(=O)(=O)N4CCCCCC4)cc3)cc2NC1=O (stereo not shown)
target desc: (His)6-SOX11-DBD protein (Homo sapiens, UniProt P35716)
quantity kind: log10 of Kd
recorded number: 0.42
//
molecule: O=C(Nc1ccc2cccnc2c1)c1ccc(OCc2ccccc2)cc1
target desc: (His)6-SOX11-DBD protein (Homo sapiens, UniProt P35716)
quantity kind: log10 of Kd
recorded number: 0.55
//
molecule: CC1Sc2ccc(C(=O)Nc3cccc(CNc4cccc(OS(=O)(=O)F)c4)c3)cc2NC1=O (stereo not shown)
target desc: (His)6-SOX11-DBD protein (Homo sapiens, UniProt P35716)
quantity kind: log10 of Kd
recorded number: 1.05
//
molecule: Cc1cc(OCc2ccccc2)ccc1CNc1ccc2cncnc2c1
target desc: (His)6-SOX11-DBD protein (Homo sapiens, UniProt P35716)
quantity kind: log10 of Kd
recorded number: 0.97
//
molecule: O=C(Nc1ccc(S(=O)(=O)Nc2ccccc2)cc1)c1ccc2nncn2c1
target desc: (His)6-SOX11-DBD protein (Homo sapiens, UniProt P35716)
quantity kind: log10 of Kd
recorded number: 2.56
//
molecule: c1ccc(COc2cccc(CNc3ccc4cncnc4c3)c2)cc1
target desc: (His)6-SOX11-DBD protein (Homo sapiens, UniProt P35716)
quantity kind: log10 of Kd
recorded number: 1.38
//
molecule: O=C(Nc1ccc(CNc2ccccc2)cc1)c1ccc2nncn2c1
target desc: (His)6-SOX11-DBD protein (Homo sapiens, UniProt P35716)
quantity kind: log10 of Kd
recorded number: 1.66
//
molecule: CCCCN1C(=O)CSc2ccc(C(=O)Nc3ccc(S(=O)(=O)N4CCCCC4)cc3)cc21
target desc: (His)6-SOX11-DBD protein (Homo sapiens, UniProt P35716)
quantity kind: log10 of Kd
recorded number: 1.40

// query Give the measured log10 of Kd of Cc1ccccc1NS(=O)(=O)c1cccc(NC(=O)c2ccc3c(c2)NC(=O)C(C)S3)c1 (stereo not shown) .
// result 0.87

// query Give the measured log10 of Kd of O=C(Nc1cccc(OCc2ccccc2)c1)c1ccc2snnc2c1 .
// result 0.98

// query Give the measured log10 of Kd of CC1Sc2ccc(C(=O)Nc3ccc(S(=O)(=O)N(C)c4ccccc4)cc3)cc2NC1=O (stereo not shown) .
// result 0.17

---

- target desc: (His)6-SOX11-DBD protein (Homo sapiens, UniProt P35716)
- Construct: Recombinant (His)6-SOX11-DBD protein was immobilized
- procedure summary: Surface Plasmon Resonance (SPR) assay
- condition details: immobilized recombinant (His)6-SOX11-DBD, 25° C., compounds 5-40 μM, mean of three experiments
Quick list: Kd per entry.
Please give a number only; it is taken to be in µM.

Examples with answers:
compound: FC(F)(F)c1cc(CNc2ccc3cncnc3c2)ccc1OCc1ccccc1
result units: µM
Kd: 4.89
--
compound: Cc1cc(C(=O)Nc2ccc(S(=O)(=O)Nc3ccccc3)cc2)nc(NC2CCC(N)CC2)n1 (stereo not shown)
result units: µM
Kd: 94.6

// query Write down the reported Kd of CC1Sc2ccc(C(=O)Nc3cccc(S(=O)(=O)Nc4ccc(NC(=O)OC(C)(C)C)cc4)c3)cc2NC1=O (stereo not shown) , test system: (His)6-SOX11-DBD protein (Homo sapiens, UniProt P35716).
// result 5.07

// query Write down the reported Kd of CC1Sc2ccc(C(=O)Nc3ccc(S(=O)(=O)Nc4ccncc4)cc3)cc2NC1=O (stereo not shown) , test system: (His)6-SOX11-DBD protein (Homo sapiens, UniProt P35716).
// result 30.9

// query Write down the reported Kd of CC1Sc2ccc(C(=O)Nc3cccc(S(=O)(=O)Nc4ccc(C(F)(F)F)cc4)c3)cc2NC1=O (stereo not shown) , test system: (His)6-SOX11-DBD protein (Homo sapiens, UniProt P35716).
// result 2.12

// query Write down the reported Kd of CC1Sc2ccc(C(=O)Nc3ccc(CNc4ccccc4)cc3)cc2NC1=O (stereo not shown) , test system: (His)6-SOX11-DBD protein (Homo sapiens, UniProt P35716).
// result 0.258

// query Write down the reported Kd of CC1Sc2ccc(C(=O)Nc3cccc(CNc4cccc(S(=O)(=O)F)c4)c3)cc2NC1=O (stereo not shown) , test system: (His)6-SOX11-DBD protein (Homo sapiens, UniProt P35716).
// result 1.9

---

- Test system: Jeko-1 (SOX11+)
- procedure summary: Cell viability assay (CellTiter-Blue resazurin reduction)
- Assay type: cell-based
- condition details: Homo sapiens, JeKo-1, 72 h, JeKo-1 cells, 20 μM compound, normalized to 0.2% DMSO
quantity kind: viability at 20 µM (%)
Please give a number only; it is taken to be in %.

Examples with answers:
molecule: O=C(Nc1ccc(S(=O)(=O)Nc2ccccc2)cc1)c1ccc2cncnc2c1
target desc: Jeko-1 (SOX11+)
result units: %
viability at 20 µM: 100

molecule: O=C(Nc1ccc(S(=O)(=O)Nc2ccccc2)cc1)c1ccc2cnccc2c1
target desc: Jeko-1 (SOX11+)
result units: %
viability at 20 µM: 6.45

molecule: CC1Oc2ccc(C(=O)Nc3ccc(S(=O)(=O)Nc4ccccc4)cc3)cc2NC1=O (stereo not drawn)
target desc: Jeko-1 (SOX11+)
result units: %
viability at 20 µM: 9.09

molecule: CC1Sc2ccc(C(=O)Nc3ccc(S(=O)(=O)N(C)c4ccccc4)cc3)cc2NC1=O (stereo not drawn)
target desc: Jeko-1 (SOX11+)
result units: %
viability at 20 µM: 18

// query Give the measured viability at 20 µM of CC1Sc2ccc(C(=O)Nc3cccc(S(=O)(=O)NC4CC4)c3)cc2NC1=O (stereo not drawn) .
// result 11.9

// query Give the measured viability at 20 µM of O=C(Nc1cccc(CNc2ccccc2)c1)c1ccc2c(c1)CCCS2 .
// result 85.3

// query Give the measured viability at 20 µM of Nc1ccccc1CC(=O)Nc1cccc(C(=O)Nc2ccc(S(=O)(=O)Nc3ccccc3)cc2)c1 .
// result 9.92

// query Give the measured viability at 20 µM of CCN(c1ccccc1)S(=O)(=O)c1cccc(NC(=O)c2ccc3snnc3c2)c1 .
// result 4.86

// query Give the measured viability at 20 µM of CC1Sc2ccc(C(=O)Nc3cccc(S(=O)(=O)N4CCCCC4)c3)cc2NC1=O (stereo not drawn) .
// result 0.6
